Target: ENaC (Epithelial Sodium Channel) (Mus musculus, UniProt Q61180+Q9WU38+Q9WU39)
Construct: Mouse kidney M-1 cells were cultivated in DMEM; endogenous in cells; host or cells: mouse kidney M-1 cells (cortical collecting duct line), dexamethasone-treated, grown on transwell filters
Sequence (Q61180 1-699): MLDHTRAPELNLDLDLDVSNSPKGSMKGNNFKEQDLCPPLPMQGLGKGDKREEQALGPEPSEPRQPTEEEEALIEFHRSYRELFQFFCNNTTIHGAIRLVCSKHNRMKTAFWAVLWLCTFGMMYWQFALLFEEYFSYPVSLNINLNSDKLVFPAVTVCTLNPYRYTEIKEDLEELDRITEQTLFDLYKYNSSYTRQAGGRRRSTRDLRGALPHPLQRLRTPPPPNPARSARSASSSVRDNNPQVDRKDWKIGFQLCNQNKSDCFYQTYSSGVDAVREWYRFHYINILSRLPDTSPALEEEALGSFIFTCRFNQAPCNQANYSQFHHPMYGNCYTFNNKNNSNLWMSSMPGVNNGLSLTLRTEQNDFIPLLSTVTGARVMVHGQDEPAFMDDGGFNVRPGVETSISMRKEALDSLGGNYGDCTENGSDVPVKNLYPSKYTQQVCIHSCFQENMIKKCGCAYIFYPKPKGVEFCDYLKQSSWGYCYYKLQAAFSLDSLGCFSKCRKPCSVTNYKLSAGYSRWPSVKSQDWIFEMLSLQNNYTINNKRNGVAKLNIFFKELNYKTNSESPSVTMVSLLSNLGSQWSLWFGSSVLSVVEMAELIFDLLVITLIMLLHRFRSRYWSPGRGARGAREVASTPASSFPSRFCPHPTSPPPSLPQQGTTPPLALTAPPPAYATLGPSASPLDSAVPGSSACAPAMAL
Sequence (Q9WU38 1-638): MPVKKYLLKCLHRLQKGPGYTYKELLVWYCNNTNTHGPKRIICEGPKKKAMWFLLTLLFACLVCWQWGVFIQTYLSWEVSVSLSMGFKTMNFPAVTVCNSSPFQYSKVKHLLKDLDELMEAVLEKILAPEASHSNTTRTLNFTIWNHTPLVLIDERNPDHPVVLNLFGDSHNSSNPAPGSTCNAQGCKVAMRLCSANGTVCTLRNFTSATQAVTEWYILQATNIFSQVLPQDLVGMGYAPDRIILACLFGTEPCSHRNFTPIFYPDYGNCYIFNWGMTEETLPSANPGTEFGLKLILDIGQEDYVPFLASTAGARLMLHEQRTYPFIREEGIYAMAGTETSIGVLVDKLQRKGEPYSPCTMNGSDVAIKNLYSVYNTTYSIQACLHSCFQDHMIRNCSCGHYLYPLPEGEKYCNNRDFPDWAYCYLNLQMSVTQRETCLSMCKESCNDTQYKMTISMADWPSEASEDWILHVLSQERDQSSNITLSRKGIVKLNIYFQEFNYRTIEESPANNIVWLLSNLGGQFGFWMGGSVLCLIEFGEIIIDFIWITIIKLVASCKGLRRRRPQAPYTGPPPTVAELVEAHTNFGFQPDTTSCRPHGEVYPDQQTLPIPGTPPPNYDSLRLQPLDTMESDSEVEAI
Sequence (Q9WU39 1-655): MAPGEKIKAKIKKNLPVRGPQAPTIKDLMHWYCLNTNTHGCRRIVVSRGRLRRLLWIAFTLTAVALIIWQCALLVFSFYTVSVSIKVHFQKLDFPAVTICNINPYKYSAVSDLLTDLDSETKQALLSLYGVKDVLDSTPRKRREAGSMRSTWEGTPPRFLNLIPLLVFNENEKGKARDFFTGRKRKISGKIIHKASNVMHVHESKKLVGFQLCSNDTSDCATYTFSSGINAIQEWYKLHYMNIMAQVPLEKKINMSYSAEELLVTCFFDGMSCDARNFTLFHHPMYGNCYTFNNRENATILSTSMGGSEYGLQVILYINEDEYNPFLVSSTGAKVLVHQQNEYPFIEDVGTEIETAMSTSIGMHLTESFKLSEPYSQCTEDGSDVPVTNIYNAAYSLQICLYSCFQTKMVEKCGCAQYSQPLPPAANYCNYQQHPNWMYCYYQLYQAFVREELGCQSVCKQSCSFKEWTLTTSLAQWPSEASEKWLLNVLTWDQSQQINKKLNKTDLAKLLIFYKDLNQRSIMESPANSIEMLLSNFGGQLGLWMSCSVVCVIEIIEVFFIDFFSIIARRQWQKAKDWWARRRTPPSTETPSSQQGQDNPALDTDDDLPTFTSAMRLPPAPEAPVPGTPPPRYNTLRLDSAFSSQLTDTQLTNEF
Assay: Ussing Chamber assay: inhibition of amiloride sensitive short circuit current in M-1 cells
Format: cell-based
Conditions: Ussing chamber, mouse kidney M-1 cells, short circuit current, apical administration, 37° C.; read-out: IC50
RECORDED_ENDPOINT: pIC50
Would you please state pIC50, meaning minus log10 of the concentration in mol/L, as a bare number?

In [3]: df
Out[3]:
                         structure_notation  measured_value
0  CCNC(=O)N1CCC(n2c(CNC(=O)c3nc(Cl)c(N)nc3N)[n+](CC)c3ccc(OCC(=O)NC4CCN(CC)CC4)cc32)CC1            8.70
1  CCNC(=O)N1CCC(n2c(CNC(=O)c3nc(Cl)c(N)nc3N)[n+](CC)c3ccc(OCC(=O)NC4CCNCC4)cc32)CC1            8.52
2  CCn1c(CNC(=O)c2nc(Cl)c(N)nc2N)[n+](CC2CCOCC2)c2ccc(OCC(=O)N(Cc3ccccc3)Cc3nc(C)ccc3[O-])cc21            8.30
3  CCn1c(CNC(=O)c2nc(Cl)c(N)nc2N)[n+](CC2CCOCC2)c2ccc(OCC(=O)NCc3nc(C)ccc3[O-])cc21            8.70

Input: Report pIC50 for `CC[n+]1c(CNC(=O)c2nc(Cl)c(N)nc2N)n(C[C@@H]2CCCO2)c2cc(OCC(=O)N3CC[S+]([O-])CC3)ccc21.O=C([O-])C(F)(F)F`
Output: 9.00

Input: Name the recorded pIC50 of the compound listed here: `CCn1c(CNC(=O)c2nc(Cl)c(N)nc2N)[n+](CC2CCOCC2)c2ccc(OCC(=O)N(Cc3nc(C)ccc3[O-])C[C@H](C)O)cc21`
Output: 8.70

Input: Name the recorded pIC50 of the compound listed here: `CCn1c(CNC(=O)c2nc(Cl)c(N)nc2N)[n+](Cc2cccc(C(=O)N3CC[S+]([O-])CC3)c2)c2ccc(OCCO)cc21.O=C([O-])C(F)(F)F`
Output: 7.80

Input: Please give measured pIC50 of the following entry: `CC[n+]1c(CNC(=O)c2nc(Cl)c(N)nc2N)n(CC2CCOCC2)c2cc(OCCC[n+]3cc([O-])cc(OC)c3)c(Cl)cc21.O=C([O-])C(F)(F)F`
Output: 8.70

Input: Give a short answer stating reported pIC50 for `CCCCCCN1CCC(NC(=O)COc2ccc3c(c2)n(C2CCN(C(=O)NCC)CC2)c(CNC(=O)c2nc(Cl)c(N)nc2N)[n+]3CC)CC1` .
Output: 8.40

Input: Please indicate pIC50 recorded for `Nc1nc(N)c(C(=O)NCc2n(C[C@@H]3CCCO3)c3cc(OCCO)ccc3[n+]2CCOCCO)nc1Cl`
Output: 8.52

====

target: ENaC (Epithelial Sodium Channel) (Mus musculus, UniProt Q61180+Q9WU38+Q9WU39); construct: Mouse kidney M-1 cells were cultivated in DMEM; endogenous in cells; host or cells: mouse kidney M-1 cells (cortical collecting duct line), dexamethasone-treated, grown on transwell filters; experiment: Ussing Chamber assay: inhibition of amiloride sensitive short circuit current in M-1 cells; type: cell-based
RECORDED_ENDPOINT: IC50 (nM)
# number only, unit nM dropped from output

Input: Quote ENaC (Epithelial Sodium Channel) (Mus musculus, UniProt Q61180+Q9WU38+Q9WU39) IC50 for entry `CCOP(=O)([O-])CCCCn1c(CNC(=O)c2nc(Br)c(N)nc2N)[n+](CC)c2ccc(O)cc21` .
Output: 25

====

experiment: Permeability in CALU-3 cells; assay type: in vitro ADME; settings: human; apical-to-basal, CALU-3 monolayers, pH 7.4, 37° C., 10 μM compound
RECORDED_ENDPOINT: Papp A→B at 90 min, 10 μM (×10⁻⁶ cm/s)
Please respond with the number in ×10⁻⁶ cm/s and leave the unit unwritten.

Before answering, review these 6 worked examples.
                         structure_notation  measured_value
0  CCn1c(CNC(=O)c2nc(Cl)c(N)nc2N)[n+](Cc2cccnc2)c2ccc(OCC(=O)N(C)C)cc21.O=C([O-])C(F)(F)F             0.4
1  CC[n+]1c(CNC(=O)c2nc(Cl)c(N)nc2N)n(CC2CCOCC2)c2cc(OCCC[n+]3cc([O-])cc(OC)c3)c(Cl)cc21.O=C([O-])C(F)(F)F             0.4
2  CCn1c(CNC(=O)c2nc(Cl)c(N)nc2N)[n+](Cc2cccc(C(=O)N3CC[S+]([O-])CC3)c2)c2ccc(OCCO)cc21.O=C([O-])C(F)(F)F             0.1
3  CC[n+]1c(CNC(=O)c2nc(Cl)c(N)nc2N)n(CCOCCn2ccccc2=O)c2cc(OCP(C)(C)=O)ccc21.O=C([O-])C(F)(F)F             0.2
4  CC[n+]1c(CNC(=O)c2nc(Cl)c(N)nc2N)n(C[C@@H]2CCCO2)c2cc(OCC(=O)N3CC[S+]([O-])CC3)ccc21.O=C([O-])C(F)(F)F             0.5
5  CC[n+]1c(CNC(=O)c2nc(Cl)c(N)nc2N)n(C[C@@H]2CCCO2)c2cc(OCC(=O)NCc3ccccn3)ccc21.O=C([O-])C(F)(F)F            0.03

Note: attention shifts to another entry.
Input: Please supply the value of reported Papp A→B at 90 min, 10 μM for the item `C[n+]1c(CNC(=O)c2nc(Cl)c(N)nc2N)n(C[C@@H]2CCCO2)c2cc(OCCO)ccc21.O=C([O-])C(F)(F)F`
Output: 0.3
